Source: BindingDB's records for doi:10.7270/Q2T72FW8

- systemTested: S-ribosylhomocysteine lyase (Vibrio harveyi, UniProt B0LUE4)
- Sequence (B0LUE4 whole entry): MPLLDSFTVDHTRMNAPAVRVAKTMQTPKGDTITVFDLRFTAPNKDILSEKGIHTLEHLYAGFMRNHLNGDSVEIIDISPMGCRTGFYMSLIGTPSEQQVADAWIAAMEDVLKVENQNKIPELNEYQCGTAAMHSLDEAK
- experimentalProtocol: bacterial growth suppression, V. harveyi cultures – absorbance, dose retest, counter-screen for AI-2 quorum sensing modulator project, confirmation (AID 2725)
pEC50: −log10 of the molar value.
Below, each of the compounds is paired with its reported pEC50 value.

Worked examples, 2 compounds total:
molSmiles	systemTested	propertyName	dataValue
COc1cc(NC(=O)CN2C(=O)NC(c3ccccc3)(c3ccccc3)C2=O)cc(OC)c1	S-ribosylhomocysteine lyase (Vibrio harveyi, UniProt B0LUE4)	pEC50	4.86
CCc1ccc(S(=O)(=O)Nc2ccc(Br)cn2)cc1	S-ribosylhomocysteine lyase (Vibrio harveyi, UniProt B0LUE4)	pEC50	< 3.80

Record CCCc1ccc(S(=O)(=O)N(C)S(=O)(=O)c2ccc(F)cc2)cc1 , field pEC50: 5.34

Record CN(C)S(=O)(=O)c1ccc(NC(=S)NC(=O)Cc2ccccc2)cc1 , field pEC50: < 3.80

Record Cn1cnc(S(=O)(=O)Nc2ccc(OC(F)(F)F)cc2)c1 , field pEC50: < 3.80

Record Cc1cccc(NS(=O)(=O)c2ccc(Oc3ccccc3)cc2)n1 , field pEC50: < 3.80

Record C=Cn1c(C(=O)O)ccc1-c1ccc(CC)cc1 , field pEC50: < 3.80
